Measured values drawn from PubChem BioAssay (NCI) for this set.

System: DU-145 prostate
measurement-description: NCI tumour cell line growth inhibition, 48 h; in the data active = GI50 below about 0.43 µM; inactive = the rest
Tick one outcome: t = active, f = inactive

molecule: C[C@]12CC[C@H]3[C@@H](C[C@@H]4SC(Nc5cccc(F)c5)=N[C@@]45CC(=O)CC[C@]35C)[C@@H]1CCC2=O
cat: f

Recorded test outcome, item `CS(=O)(=O)c1ccc(C(F)(F)F)cc1NC(=O)Nc1cnc(Oc2ccc(-c3cc(Cl)cnc3N)cc2)nc1`
f

Which outcome did this test record for the molecule `C=CCSc1n[nH]c(-c2cccs2)n1` ?
f

Short answer needed: outcome of this test for `Clc1ccc2c(NCCCN3CCN(c4nc(-n5ccnc5)nc5ccccc45)CC3)ccnc2c1` ?
f

Hey, what did the test say about `COc1ccc2cc(C(=O)/C=C/c3ccc(OC)c(OC)c3)ccc2c1` ?
f

Outcome? `COc1ccc(OC)c(-c2nc3sccn3c2/C=C2/C(=O)Nc3ccccc32)c1`
f

Returns: the outcome recorded for NC1=C(c2nc(-c3cc4ccccc4oc3=O)cs2)C(c2ccco2)c2c(c3ccccc3oc2=O)O1 (centres undefined) in this assay.
f

What was the test verdict on N#CC1=C(N)Oc2c(sc3c(F)cccc23)C1c1ccc([N+](=O)[O-])cc1 (centres undefined) ?
t

Which outcome was assigned to `COc1ccc2[nH]cc(/C=C3\C(=O)Nc4ccccc43)c2c1` in this test?
f
